# Hepatotoxicity (severe hepatitis) values compiled below
condition.label: human
Lab note: jot the number down without any unit.

>>> measured("CCCCCN(C)CCC(O)(P(=O)(O)O)P(=O)(O)O [IBANDRONIC ACID]")
0
>>> measured("OC(c1cc(C(F)(F)F)nc2c(C(F)(F)F)cccc12)C1CCCCN1 (centres undefined) [MEFLOQUINE]")
0
>>> measured("CCCc1cc(C(N)=S)ccn1 [PROTIONAMIDE]")
2
>>> measured("CCOc1nc2cccc(C(=O)O)c2n1Cc1ccc(-c2ccccc2-c2nnn[nH]2)cc1")
1
>>> measured("CO[C@H]1C[C@H](O[C@H]2[C@H](C)[C@@H](O[C@@H]3O[C@H](C)C[C@H](N(C)C)[C@H]3OC(C)=O)[C@@H](C)C[C@@]3(CO3)C(=O)[C@H](C)[C@@H](OC(C)=O)[C@@H](C)[C@@H](C)OC(=O)[C@@H]2C)O[C@@H](C)[C@@H]1OC(C)=O [TROLEANDOMYCIN]")
0

Enquiry: Recorded Hepatotoxicity (severe hepatitis) of COC(=O)C[C@](O)(CCCC(C)(C)O)C(=O)O[C@@H]1C(OC)=C[C@]23CCCN2CCc2cc4c(cc2[C@H]13)OCO4 [OMACETAXINE MEPESUCCINATE] , please.
Return: 0

Enquiry: Again, but for C=C1c2cccc(O)c2C(=O)C2=C(O)[C@]3(O)C(=O)C(C(N)=O)=C(O)[C@@H](N(C)C)[C@@H]3[C@@H](O)[C@H]12 [METHACYCLINE]
Return: 0

Enquiry: Again, but for NC(=O)c1cc[n+](CC2=C(C(=O)O)N3C(=O)[C@@H](NC(=O)[C@@H](c4ccccc4)S(=O)(=O)[O-])[C@H]3SC2)cc1 [CEFSULODIN]
Return: 0

====

# Hepatotoxicity (acute) values compiled below
experiment.summary: Highest frequency of acute liver toxicity observed during clinical trials, expressed as a percentage. [column '% AIGUE' in source]
condition.label: human, Liver
The answer should read as a number with its unit following.

>>> measured("Cc1ncc(C[n+]2csc(CCO)c2C)c(N)n1")
"0%"
>>> measured("NNCCc1ccccc1")
"0%"
>>> measured("CC(C)(C)NC(=O)[C@@H]1C[C@@H]2CCCC[C@@H]2CN1C[C@@H](O)[C@H](Cc1ccccc1)NC(=O)[C@H](CC(N)=O)NC(=O)c1ccc2ccccc2n1")
"12.5%"

# input for lookup
Enquiry: Recorded Hepatotoxicity (acute) of CCOC(=O)c1cncn1[C@H](C)c1ccccc1 [ETOMIDATE] , please.
Return: 0%

====

condition.label: human
readout.name: Hepatotoxicity (cytolytic)
Lab note: jot the number down without any unit.

Enquiry: Recorded Hepatotoxicity (cytolytic) of `O=C(COCC(=O)Nc1c(I)cc(I)c(C(=O)O)c1I)Nc1c(I)cc(I)c(C(=O)O)c1I` , please.
Return: 0

Enquiry: Again, but for `COc1cc2c(c(OC)c1OC)-c1ccc(OC)c(=O)cc1[C@@H](NC(C)=O)CC2`
Return: 3

Enquiry: Again, but for `CN(C)CC(Oc1ccccc1)Oc1ccccc1`
Return: 1

Enquiry: Again, but for `CC(=O)OCC1=C(C(=O)O)N2C(=O)[C@@H](NC(=O)CC#N)[C@H]2SC1`
Return: 0

Enquiry: Again, but for `CCCN(CCC)C(=O)Cc1c(-c2ccc(Cl)cc2)nc2ccc(Cl)cn12`
Return: 4

Enquiry: Again, but for Cc1oc(=O)oc1CN1CCN(c2cc3c(cc2F)c(=O)c(C(=O)O)c2n3C(C)S2)CC1 (stereo not given)
Return: 0

Enquiry: Again, but for `CCOC(=O)CN[C@@H](C(=O)N1CC[C@H]1C(=O)NCc1ccc(/C(N)=N\O)cc1)C1CCCCC1`
Return: 0

Enquiry: Again, but for `CC[C@H](c1ccc(O)cc1)[C@@H](CC)c1ccc(O)cc1`
Return: 0

Enquiry: Again, but for `C[C@]12CC[C@@H]3c4ccc(OC(=O)N(CCCl)CCCl)cc4CC[C@H]3[C@@H]1CC[C@@H]2O`
Return: 1

Enquiry: Again, but for CC1=C(CC(=O)O)c2cc(F)ccc2/C1=C\c1ccc([S+](C)[O-])cc1 (stereo not given)
Return: 12

Enquiry: Again, but for CC(=O)CC(c1ccccc1)c1c(O)c2ccccc2oc1=O (stereo not given)
Return: 0

Enquiry: Again, but for `COc1ccc2cc(CCC(C)=O)ccc2c1`
Return: 1

Enquiry: Again, but for CCCCN1CCCCC1C(=O)Nc1c(C)cccc1C (stereo not given)
Return: 1

Enquiry: Again, but for CC(=O)O[C@]1(C(C)=O)CC[C@H]2[C@@H]3C=C(C)C4=CC(=O)CC[C@]4(C)[C@H]3CC[C@@]21C [MEGESTROL ACETATE]
Return: 1

Enquiry: Again, but for `NC(=O)CC[C@@H]1NC(=O)[C@H](Cc2ccccc2)NC(=O)[C@H](Cc2ccc(O)cc2)NC(=O)CCSSC[C@@H](C(=O)N2CCC[C@H]2C(=O)N[C@H](CCCN=C(N)N)C(=O)NCC(N)=O)NC(=O)[C@H](CC(N)=O)NC1=O`
Return: 0

====

experiment.summary: Highest frequency of moderate liver toxicity observed during clinical trials, expressed as a percentage. [column '% BIOL' in source]
condition.label: human
# Hepatotoxicity (moderate) values compiled below
Give just the numeric value; % need not be written.

The cases that follow already have their Hepatotoxicity (moderate) on record.
>>> measured("CC1(C)S[C@@H]2[C@H](NC(=O)[C@H](N)c3ccccc3)C(=O)N2[C@H]1C(=O)O")
20
>>> measured("CC(CN(C)C)CN1c2ccccc2CCc2ccccc21 (centres undefined)")
0
>>> measured("CS(=O)(=O)c1ccc2c(c1)N(CCCN1CCC(C(N)=O)CC1)c1ccccc1S2")
0

# input for lookup
Enquiry: Recorded Hepatotoxicity (moderate) of CO/N=C(\C(=O)N[C@@H]1C(=O)N2C(C(=O)OC(C)OC(C)=O)=C(COC(N)=O)CS[C@H]12)c1ccco1 (some centres undefined) , please.
Return: 20

====

# Hepatotoxicity (choleostasis) values compiled below
condition.label: human

>>> measured("O=C(CCCN1CCN(c2ccc(F)cc2)CC1)NC1c2ccccc2CSc2ccccc21 (configuration not stated) [MONATEPIL]")
0

Enquiry: Recorded Hepatotoxicity (choleostasis) of `CCc1cc2c(s1)N(C)C(=O)CN=C2c1ccccc1Cl` , please.
Return: 0

Enquiry: Again, but for CCOC(=O)OC(C)OC(=O)[C@@H]1N2C(=O)[C@@H](/N=C/N3CCCCCC3)[C@H]2SC1(C)C (some centres not stated)
Return: 0

Enquiry: Again, but for CCOC(=O)C(C)(C)Oc1ccc(Cl)cc1 [CLOFIBRATE]
Return: 1

Enquiry: Again, but for CC(N)C12CC3CC(CC(C3)C1)C2 (configuration not stated)
Return: 0

Enquiry: Again, but for O=C(NCCN1CCOCC1)c1ccc(Cl)cc1 [MOCLOBEMIDE]
Return: 1

Enquiry: Again, but for `COc1cnc(NS(=O)(=O)c2ccc(N)cc2)nc1`
Return: 1

Enquiry: Again, but for `CSc1nc2cc(Cl)c(Oc3cccc(Cl)c3Cl)cc2[nH]1`
Return: 1

====

condition.label: human
readout.name: Hepatotoxicity (choleostasis)
Lab note: jot the number down without any unit.

The cases that follow already have their Hepatotoxicity (choleostasis) on record.
>>> measured("Cc1c(OCC(F)(F)F)ccnc1C[S+]([O-])c1nc2ccccc2[nH]1 (stereo not given)")
1
>>> measured("O=C(O)CCNC(=O)c1ccc(/N=N/c2ccc(O)c(C(=O)O)c2)cc1 [BALSALAZIDE]")
1
>>> measured("OCCN1CCN(CC/C=C2/c3ccccc3Sc3ccc(Cl)cc32)CC1")
0
>>> measured("COc1ccc(/C=C/C(=O)Nc2ccccc2C(=O)O)cc1OC")
0
>>> measured("CC[C@]1(O)C[C@@H]2CN(CCc3c([nH]c4ccccc34)[C@@](C(=O)OC)(c3cc4c(cc3OC)N(C)[C@H]3[C@@](O)(C(N)=O)[C@H](O)[C@]5(CC)C=CCN6CC[C@]43[C@@H]65)C2)C1")
0

Enquiry: Recorded Hepatotoxicity (choleostasis) of `COc1c(N2C[C@@H]3CCCN[C@@H]3C2)c(F)cc2c(=O)c(C(=O)O)cn(C3CC3)c12` , please.
Return: 1

Enquiry: Again, but for CNC1=Nc2ccc(Cl)cc2C(c2ccccc2)=[N+]([O-])C1 [CHLORDIAZEPOXIDE]
Return: 3

Enquiry: Again, but for `CN1C(=O)OC(C)(C)C1=O`
Return: 0

Enquiry: Again, but for CC(=O)OCC(=O)NCCCOc1cccc(CN2CCCCC2)c1 [ROXATIDINE ACETATE]
Return: 0

Enquiry: Again, but for `c1cnc(N2CCN(Cc3ccc4c(c3)OCO4)CC2)nc1`
Return: 0

====

experiment.summary: Highest frequency of moderate liver toxicity observed during clinical trials, expressed as a percentage. [column '% BIOL' in source]
condition.label: human
Returns one of 1.0 or 0.0; 1.0 when Hepatotoxicity (moderate) is >= 7%.

Worked examples follow.
>>> class_name("CC(=O)OCC(CCn1cnc2cnc(N)nc21)COC(C)=O")
0.0
>>> class_name("C[C@H]([C@](O)(Cn1cncn1)c1ccc(F)cc1F)S(C)(=O)=O")
1.0
>>> class_name("C[C@@H](O)[C@H]1C(=O)N2C(C(=O)O)=C(S[C@@H]3CN[C@H](C(=O)N(C)C)C3)[C@H](C)[C@H]12")
1.0
>>> class_name("C[C@H](C(=O)O)c1ccc2oc(-c3ccc(F)cc3)nc2c1")
0.0

Enquiry: Does Hepatotoxicity (moderate) meet or surpass 7% for `CO[C@@H]1[C@@H](O[C@@H]2O[C@H](C)[C@@H](O[C@H]3C[C@@](C)(O)[C@@H](OC(=O)CC(C)C)[C@H](C)O3)[C@H](N(C)C)[C@H]2O)[C@@H](CC=O)C[C@@H](C)[C@@H](O)/C=C/C=C/C[C@@H](C)OC(=O)C[C@H]1OC(C)=O` ?
Return: 1.0
